Reference source for all entries: PubChem BioAssay AID1224921

assay-text: inhibitors of Clostridioides difficile proliferation – 4-point retest, confirmation (AID 1224921);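 note: plate controls were DMSO wells for no effect and levofloxacin 16 µg/mL wells for full effect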
measurement-context: Clostridioides difficile clinical isolate growth, OD600, 24 h, hits give low values; at 30 µM unless noted
Among all 1,400 compounds or so, about 350 (25%) were called active. Not shown: some 2% with an inconclusive outcome. A selection follows. Measured potencies and affinities stand elsewhere.
Property: max activity; scope: individual molecules

Some entries whose results are on file:
>>> print(df.to_string())
                              sample_smiles  measurement_name                 value_reported
0  CCCN1C[C@@H](C)[C@@H](OC)CN(C)C(=O)c2cc(NC(=O)CC)ccc2OC[C@H]1C      max activity  -7.79% [at 0.5 µM] (inactive)
1  CCCN(C)C[C@H]1OCCCC[C@H](C)Oc2ccc(NC(=O)Nc3cccc4ccccc34)cc2C(=O)N([C@@H](C)CO)C[C@H]1C      max activity               13.8% (inactive)

Quick check: max activity of `CCCN1[C@@H]2c3ccc(-c4ccc(F)cc4)c(=O)n3C[C@@H]2[C@@H](CO)[C@@H]1C(=O)N[C@@H](C)c1ccccc1` ?
-8.45% (inactive)

Also, `COc1cccc(NC(=O)N[C@H]2CC[C@H](CC(=O)N3CCCCC3)O[C@@H]2CO)c1` please.
17.5% (inactive)

Also, `CCCN1C[C@@H](C)[C@@H](OC)CN(C)C(=O)c2cc(NC(=O)c3cccc(F)c3)ccc2OC[C@H]1C` please.
-11.3% [at 1.95 µM] (inactive)

Also, `CC(C)NC(=O)N(C)C[C@H]1Oc2cc(C#Cc3cccc(F)c3)ccc2S(=O)(=O)N([C@H](C)CO)C[C@H]1C` please.
32.6% (inactive)

Also, `C[C@H]1CN([C@@H](C)CO)S(=O)(=O)c2ccc(C#CCC3CCCC3)cc2O[C@@H]1CN(C)C` please.
-13.1% [at 1.95 µM] (inactive)

Also, `CC(C)CC#Cc1ccc2c(c1)O[C@H](CN(C)Cc1ccc3c(c1)OCO3)[C@H](C)CN([C@H](C)CO)S2(=O)=O` please.
43.6% (inactive)

* * *

Property: max activity; scope: individual compounds
assay-text: inhibitors of Clostridioides difficile proliferation – 4-point retest, confirmation (AID 1224921)
measurement-context: Clostridioides difficile clinical isolate growth, OD600, 24 h, hits give low values; at 30 µM unless noted
In all, about 1,400 compounds went through this assay and about 350 (25%) were called active. Not shown: some 2% with an inconclusive outcome. Only a sample is shown. Potency and affinity values are given separately.

Some entries whose results are on file:
                              sample_smiles                  value_reported
0  O=C(Nc1ccc2c(c1)OCO2)N[C@H]1CC[C@H](CCNC(=O)C2CC2)O[C@@H]1CO  -10.4% [at 1.95 µM] (inactive)
1  O=C(NCC[C@@H]1CC[C@H](NC(=O)C2CCCCC2)[C@@H](CO)O1)Nc1ccc(Cl)cc1      16.1% [at 8 µM] (inactive)

Quick check: max activity of `C[C@H](CO)N1C[C@H](C)[C@H](CN(C)C(=O)Nc2ccc(F)cc2)Oc2ncc(-c3cc4ccccc4o3)cc2C1=O` ?
26.1% (inactive)

Also, `CC(C)C#Cc1ccc([C@@H]2[C@@H](C#N)N(C(=O)C3CCC3)[C@H]2CO)cc1` please.
32.2% [at 8 µM] (inactive)

* * *

assay-text: inhibitors of Clostridioides difficile proliferation – 4-point retest, confirmation (AID 1224921);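 note: plate controls were DMSO wells for no effect and levofloxacin 16 µg/mL wells for full effect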
measurement-context: Clostridioides difficile clinical isolate growth, OD600, 24 h, hits give low values; at 30 µM unless noted
Among all 1,400 compounds or so, about 350 (25%) were called active. Another 2% or so got no clear call; they are omitted. These entries were drawn from the full list. Measured potencies and affinities stand elsewhere.
measurement-name: max activity

Some entries whose results are on file:
>>> print(df.to_string())
                              sample_smiles                  value_reported
0  CO[C@@H]1CN(C)C(=O)c2cc(NC(=O)Nc3cccc(Cl)c3)ccc2OC[C@H](C)N(C(=O)Nc2c(C)noc2C)C[C@H]1C               -9.85% (inactive)
1  C[C@@H]1CN([C@@H](C)CO)S(=O)(=O)c2ccc(/C=C/c3ccccc3)cc2O[C@@H]1CN(C)Cc1cccnc1  -27.8% [at 1.95 µM] (inactive)
2  C[C@H]1CN([C@@H](C)CO)S(=O)(=O)c2ccc(/C=C/c3ccccc3)cc2O[C@@H]1CN(C)Cc1cccnc1   -24.8% [at 0.5 µM] (inactive)

Quick check: max activity of `CC(C)CC#Cc1ccc2c(c1)O[C@H](CN(C)Cc1ccc(F)cc1)[C@H](C)CN([C@H](C)CO)S2(=O)=O` ?
23.3% [at 8 µM] (inactive)

Also, `C[C@@H]1CN([C@H](C)CO)C(=O)c2cc(C#CCN(C)C)cnc2O[C@H]1CN(C)Cc1ccccc1F` please.
24.5% (inactive)

Also, `CCCN(C)C[C@@H]1OCCCC[C@@H](C)Oc2ccc(NC(=O)Nc3ccc(C(F)(F)F)cc3)cc2C(=O)N([C@H](C)CO)C[C@@H]1C` please.
16.3% [at 8 µM] (inactive)

Also, `CC(C)CC#Cc1ccc2c(c1)O[C@H](CN(C)Cc1ccc(F)cc1)[C@@H](C)CN([C@@H](C)CO)S2(=O)=O` please.
30.5% [at 1.95 µM] (inactive)

* * *

assay-text: inhibitors of Clostridioides difficile proliferation – 4-point retest, confirmation (AID 1224921);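 note: plate controls were DMSO wells for no effect and levofloxacin 16 µg/mL wells for full effect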
measurement-context: Clostridioides difficile clinical isolate growth, OD600, 24 h, hits give low values; at 30 µM unless noted
About 350 (25%) of roughly 1,400 compounds were called active. Roughly 2% stayed inconclusive and do not appear here. Not all results are given here. Measured potencies and affinities stand elsewhere.
measurement-name: max activity

                              sample_smiles               value_reported
0  CC(=O)N[C@@H]1CC[C@H](CCNC(=O)Nc2ccc(C(F)(F)F)cc2)O[C@@H]1CO   16.8% [at 8 µM] (inactive)
1  CC(C)NC(=O)N(C)C[C@H]1Oc2cc(C#Cc3ccc(F)cc3)ccc2S(=O)(=O)N([C@@H](C)CO)C[C@@H]1C             24.4% (inactive)
2  CCCNC(=O)C[C@@H]1CC[C@H]2[C@H](COc3ccc(NC(=O)c4cccc(Cl)c4)cc3C(=O)N2C)O1  -10.6% [at 8 µM] (inactive)

Here is another molecule to look at.
Quick check: max activity of `CC(C)CC#Cc1ccc2c(c1)O[C@H](CN(C)Cc1cccnc1)[C@@H](C)CN([C@H](C)CO)S2(=O)=O` ?
42.9% (inactive)

* * *

assay-text: inhibitors of Clostridioides difficile proliferation – 4-point retest, confirmation (AID 1224921);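 note: plate controls were DMSO wells for no effect and levofloxacin 16 µg/mL wells for full effect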
measurement-context: Clostridioides difficile clinical isolate growth, OD600, 24 h, hits give low values; at 30 µM unless noted
Among all 1,400 compounds or so, about 350 (25%) were called active. Inconclusive results (about 2%) are left out. Only a sample is shown. Potency and affinity values are given separately.
measurement-name: max activity

>>> df
                              sample_smiles  measurement_name                  value_reported
0  C[C@@H]1CN([C@@H](C)CO)C(=O)Cc2cc(NS(C)(=O)=O)ccc2O[C@@H]1CN(C)Cc1ccc(-c2ccccc2)cc1      max activity                21.7% (inactive)
1  CC(C)CC#Cc1ccc2c(c1)O[C@H](CN(C)CC1CC1)[C@H](C)CN([C@H](C)CO)S2(=O)=O      max activity                6.75% (inactive)
2  C[C@@H]1CN([C@H](C)CO)C(=O)c2cc(NC(=O)CCCN(C)C)ccc2O[C@@H](C)CCCCO[C@@H]1CN(C)Cc1ccc(C(F)(F)F)cc1      max activity     6.03% [at 35 µM] (inactive)
3  COc1cccc(-c2ccc3c(c2)O[C@@H](CN(C)Cc2cccnc2)[C@H](C)CN([C@H](C)CO)S3(=O)=O)c1      max activity                34.9% (inactive)
4  CO[C@H]1CN(C)C(=O)c2cc(NC(=O)c3ccc(F)cc3)ccc2OC[C@@H](C)N(C(C)=O)C[C@H]1C      max activity  -8.16% [at 1.95 µM] (inactive)
5  CC(C)CC#Cc1ccc2c(c1)O[C@@H](CN(C)Cc1cccnc1)[C@H](C)CN([C@H](C)CO)S2(=O)=O      max activity      41.5% [at 8 µM] (inactive)

Quick check: max activity of `CO[C@@H]1CN(C)C(=O)c2ccc(NC(C)=O)cc2OC[C@@H](C)N(C(=O)CN(C)C)C[C@H]1C` ?
-8.17% (inactive)
